System: TGFBR2
Details: concentration: 1 μM, replicates: in singlicate; n = 1;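 note: KINOMEscan kinase panel screen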
Measured %Inh accompanies every entry in the list below.
Give the value, in units of %, as a plain number.

Consider the worked cases shown below.
molecule	test-value
Fc1cccc(COc2ccc(Nc3ncnc4cc[nH]c34)cc2Cl)c1	0
COc1cc2c(Nc3cccc(NC(=O)c4ccccc4)c3)ncnc2cc1OCCCN1CCOCC1 [GSK223810]	0
Cl.O=S(=O)(c1cccc(F)c1)c1ccc(Nc2ncnc3cc(Br)sc23)cc1Cl [GSK306886]	0
COc1cc2ncnc(Nc3ccc(OCc4ccccc4Br)c(Cl)c3)c2cc1OC.Cl [GI261590]	0

Now examine the next entry.
Record request: %Inh value, item CNc1nccc(-c2c(-c3ccc(F)cc3)ncn2CCCN2CCOCC2)n1 [SB-222516]
16

* * *

Measured %Inh by item
System: PIP5K2B
Conditions: concentration: 1 μM, replicates: in singlicate; n = 1
Write down the numeric answer in % and omit the unit.

See these solved cases before continuing.
molecule	parameter	test-value
COC(=O)c1cccc(NC(=O)NCCNc2ccnc(Nc3ccc(F)cc3)n2)c1	%Inh	5
Fc1ccc(Nc2nccc(-c3c(-c4ccc(Cl)cc4)nn4ncccc34)n2)cc1F	%Inh	14
O=C(Nc1ccccc1F)NC1CCN(c2ccnc(Nc3ccc(F)cc3)n2)C1 (stereo not drawn)	%Inh	14
NC(=O)c1sc(-n2cnc3ccccc32)cc1OCc1ccccc1F	%Inh	0

For the molecule shown here, COc1ccc(-c2nc3n(c2-c2ccncc2)CCC3)cc1 , give the reported %Inh.
0

// query %Inh value for entry CS(=O)(=O)CCNCc1nc(-c2ccc3ncnc(Nc4ccc(OCc5cccc(F)c5)c(Cl)c4)c3c2)cs1.Cl
0

* * *

Test system: MEK3
Construct: gene MAP2K3
Details: concentration: 1 μM, replicates: in singlicate; n = 1
parameter: %Inh (%)
Return type: number; implicit unit %.

These recorded examples may help you get a feel for the data.
compound	measurement-units	%Inh
CSc1ccc(NC2=C(c3ccccc3Cl)C(=O)NC2=O)cc1 [SB-342411]	%	0
Cn1ccc2ncnc(Nc3ccc(Oc4cccc(Cl)c4)c(Cl)c3)c21	%	1

Here's the next entry for you.
# value lookup — system MEK3, readout %Inh, item Cl.c1ccc(Cn2ncc3cc(Nc4ncnc5ccccc45)ccc32)cc1 [GW273749]
0

* * *

System: MAP4K5
Conditions: concentration: 1 μM, replicates: in singlicate; n = 1
parameter: %Inh (%)
A number alone suffices; assume %.

molecule	parameter	test-value
Cl.O=S(=O)(c1cccc(F)c1)c1ccc(Nc2ncnc3cc(Br)sc23)cc1Cl	%Inh	0

%Inh lookup needed for CNc1nccc(-c2c(-c3ccc(F)cc3)ncn2CCCN2CCOCC2)n1 , thanks.
8

Look up %Inh: C[C@@H]1CCN(C(=O)CO)C[C@@H]1N(C)c1ncnc2[nH]ccc12
0

What does the record list as %Inh for Nc1nccc2scc(-c3ccc4c(c3)CCN4C(=O)Cc3cc(F)ccc3F)c12 ?
9

So what does the record say about %Inh for Nc1nc(-c2cccnc2)c(-c2ccnc3ccccc23)s1 ?
0

// lookup %Inh for COc1ccc(Nc2nccc(N3CCC(NC(=O)c4cccc(NC(C)=O)c4)C3)n2)cc1 (stereo not shown)
0

Bench note: what %Inh did CC(C)(C)OC(=O)NC1CCCN(c2cc(-c3ccc4c(N)n[nH]c4c3)nc(N)n2)C1 (stereo not shown) show?
0
